- assay: Flash point, closed-cup apparatus, ASTM-D3278
- Format: physicochemical
property: Flash point (° C.)

O=C1CCO1 | 70 °C

Dear colleague, could you please provide Flash point (° C.) for the compounds listed below?
1. O=C1CCCO1
2. CCCCCCCC1CCCC(=O)O1 (stereo not shown)
3. CC1CC(=O)O1 (stereo not shown)

A:
1: 97 °C; 2: 168 °C; 3: 74 °C
